Target: ΔTM rat FAAH (Rattus norvegicus)
Construct: Preparation of Transmembrane Domain-Deleted Rat FAAH (ΔTM rFAAH)
Sequence (P97612 30-579 limits assumed, stated change not applied): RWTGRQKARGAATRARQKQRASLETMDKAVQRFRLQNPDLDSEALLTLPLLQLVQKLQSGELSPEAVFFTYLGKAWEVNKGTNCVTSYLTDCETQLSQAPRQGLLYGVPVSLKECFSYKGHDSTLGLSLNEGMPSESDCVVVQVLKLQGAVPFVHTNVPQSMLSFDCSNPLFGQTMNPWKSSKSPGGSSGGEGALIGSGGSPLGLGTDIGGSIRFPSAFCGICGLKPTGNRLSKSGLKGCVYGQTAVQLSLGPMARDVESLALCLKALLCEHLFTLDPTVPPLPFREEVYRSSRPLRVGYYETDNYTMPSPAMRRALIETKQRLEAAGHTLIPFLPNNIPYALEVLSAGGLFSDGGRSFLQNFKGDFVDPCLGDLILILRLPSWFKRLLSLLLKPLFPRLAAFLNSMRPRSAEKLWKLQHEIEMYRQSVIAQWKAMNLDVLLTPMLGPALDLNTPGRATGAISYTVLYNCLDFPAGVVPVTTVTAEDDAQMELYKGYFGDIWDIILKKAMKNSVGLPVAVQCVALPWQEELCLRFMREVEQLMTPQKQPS
Assay: Fluorescent assay protocol for ΔTM rat FAAH (AAMCA substrate)
Settings: 15 min preincubation, read-out: IC50 rFAAH
Procedure: Procedure was followed as described for hMAGL, except that arachidonoyl-methyl coumarin amide (AAMCA) was used as fluorigenic substrate. […] The fluorescence reading at the 3 hour time point (linear enzyme kinetics) was used to calculate percent inhibition based on control assays without inhibitor present. All FAAH assays were performed in triplicate for each inhibitor concentration, and IC50 values determined using Prizm software (GraphPad Software, Inc.).
Collected IC50 values appear next to each entry.

Examples with their reported IC50 follow.
{"smiles input": "N#Cc1ccc(F)c(OC(=O)N2CCC(Cc3ccccc3)CC2)c1", "IC50": "10 to 100 nM"}
{"smiles input": "COC(=O)c1cccc(OC(=O)N2CCC(OC(c3ccccc3)c3ccccc3)CC2)c1", "IC50": "10 to 100 nM"}
{"smiles input": "COc1ccc(C#N)cc1OC(=O)N1CCC(S(=O)(=O)c2ccc(Br)cc2)CC1", "IC50": "10 to 100 nM"}
{"smiles input": "O=C(Nc1ccccc1)N1CC(OCc2ccc(Cl)cc2)C1", "IC50": "110 to 1000 nM"}

Req: Quick one: IC50 of O=C(Nc1cccc(N2CCS(=O)(=O)CC2)c1)N1CCC(c2ccccc2)CC1 ?
Resp: > 1000 nM

Req: Same question for COc1cccc(OC(=O)N2CC(OCc3ccc(Br)cc3)C2)c1 please.
Resp: 10 to 100 nM
